- System Under Test: P. vivax DHODH (Plasmodium vivax, UniProt A5K1N1)
- Sequence (A5K1N1 entry or part of it): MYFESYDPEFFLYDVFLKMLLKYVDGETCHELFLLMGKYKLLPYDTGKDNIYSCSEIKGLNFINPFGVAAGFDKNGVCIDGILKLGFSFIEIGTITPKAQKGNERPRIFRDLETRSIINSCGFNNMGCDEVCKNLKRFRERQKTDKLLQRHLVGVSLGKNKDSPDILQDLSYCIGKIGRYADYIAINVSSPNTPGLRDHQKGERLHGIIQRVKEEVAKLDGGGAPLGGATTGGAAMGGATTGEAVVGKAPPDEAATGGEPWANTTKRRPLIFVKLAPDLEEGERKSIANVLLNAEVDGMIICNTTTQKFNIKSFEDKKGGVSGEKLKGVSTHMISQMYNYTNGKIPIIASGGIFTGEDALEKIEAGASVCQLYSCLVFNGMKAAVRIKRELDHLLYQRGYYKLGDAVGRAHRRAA
- Assay Explanation: DHODH inhibition, steady-state DCIP assay (PvDHODH)
- Assay type: biochemical
- Measurement Conditions: recombinant PvDHODH, DCIP method, 25°C, 5 nM enzyme; read-out: P. vivax DHODH (IC50)
pIC50: −log10 of the molar value.
Listed here are molecules together with their documented pIC50.

| Molecule | pIC50 |
| --- | --- |
| Cn1nc2c(=O)n(C3CC3)ccc2c1[C@](C)(N)c1ccc(C(F)(F)F)c(Cl)c1 (single isomer, unassigned) [4-4] | 8.05 |
| CC[C@@](O)(c1cnc(C(F)(F)F)c(Cl)c1)c1c2cnn(C3CC3)c(=O)c2nn1C1CC1 (single isomer, unassigned) [2-1] | 8.00 |
| CC[C@@](O)(c1ccc(C(F)(F)F)nc1)c1c2ncn(C3CC3)c(=O)c2nn1C (single isomer, unassigned) [3-7] | 7.26 |
| CC[C@@](O)(c1cnc(C(F)(F)F)c(Cl)c1)c1c2ncn(C3CC3)c(=O)c2nn1C (single isomer, unassigned) [3-5] | 7.77 |
| CC(C)[C@@](O)(c1cnc(C(F)(F)F)c(Cl)c1)c1c2ccn(C3CC3)c(=O)c2nn1C (single isomer, unassigned) [1-1] | 7.40 |
| CC[C@@](O)(c1ccc(F)c(Cl)c1)c1c2ccn(C3CC3)c(=O)c2nn1C (single isomer, unassigned) [1-13] | 7.96 |

Taken from patent EP4680608B1.
